- procedure_text: NCI Yeast Anticancer Drug Screen. Data for the bub3 strain (AID 167)
- setup_conditions: S. cerevisiae bub3 mutant strain, at 50.0 µM (retest, dose inferred, filed as 5.0), active compounds read high
About 79,000 compounds went through this panel and 15% of them were active in at least one assay; those are over-represented in the sample as a whole.
Output condition met for growth inhibition not less than 70%; output condition not met otherwise.

{"compound": "O=C(O)c1ccc([Se][Se]c2ccc(C(=O)O)cc2)cc1", "class_name": "condition met"}
{"compound": "CSCCC([NH-])C(=O)O.CSCCC([NH-])C(=O)O.[Zn+2] (configuration not stated)", "class_name": "condition not met"}
{"compound": "CCC[CH2][Pb]([CH2]CCC)([CH2]CCC)[n]1ccnc1", "class_name": "condition met"}
{"compound": "O=[As]c1cccc2ccccc12 (configuration not stated)", "class_name": "condition met"}
{"compound": "O=NNc1c[nH]c(=O)[nH]c1=O", "class_name": "condition not met"}
{"compound": "COC12C(COC(N)=O)C3=C(C(=O)C(C)=C(NC(C)C)C3=O)N1CC1NC12 (configuration not stated)", "class_name": "condition not met"}
{"compound": "O=C(O)C(Br)C(Br)C(=O)O.[Ag] (configuration not stated)", "class_name": "condition met"}
{"compound": "CC[n+]1c(/C=C/c2ccc(N(CCCl)CCCl)cc2)ccc2cc(Br)ccc21", "class_name": "condition met"}
{"compound": "O=C1CC2CCCC(C1)N2Cc1ccccc1", "class_name": "condition not met"}
{"compound": "[CH3][Sn]([CH3])([S]CCS(=O)(=O)O)[S]CCS(=O)(=O)O", "class_name": "condition not met"}
{"compound": "CN(C)c1ncnc2c1ncn2C1OC(CO)C2NP(=O)(N(CCCl)CCCl)OC21 (configuration not stated)", "class_name": "condition not met"}
{"compound": "Cc1cc(C(C)(C)c2ccc(O)c(C)c2)ccc1O", "class_name": "condition met"}
{"compound": "COc1cc(/C=C/c2ccc(OC)c(O)c2)cc(OC)c1", "class_name": "condition met"}
{"compound": "O=[N+]([O-])c1cc(-c2ccccc2)ccc1O", "class_name": "condition not met"}
{"compound": "CCCCCc1cc(/C=C2/N=C(c3ccc[nH]3)C=C2OC)[nH]c1C", "class_name": "condition met"}
{"compound": "CCC1(O)C(=O)OCc2c1cc1n(c2=O)Cc2cc3cc4c(cc3nc2-1)OCO4 (configuration not stated)", "class_name": "condition met"}
{"compound": "O=C(c1ccc2ccccc2c1)N1CC1", "class_name": "condition not met"}
{"compound": "O=c1s[se]c2ccccc12", "class_name": "condition met"}
{"compound": "CN(CCCl)c1ccc(/C=C/C2=[N+](C)c3ccccc3C2(C)C)cc1", "class_name": "condition met"}
{"compound": "Clc1cc[c]([Tl][c]2ccc(Cl)cc2)cc1", "class_name": "condition met"}
{"compound": "COc1ccc(C[C@H]2NC[C@H](O)[C@H]2OC(C)=O)cc1", "class_name": "condition met"}

###

- procedure_text: NCI Yeast Anticancer Drug Screen. Data for the sgs1 mgt1 strain (AID 161);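 further: 0% = growth of cultures given vehicle only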
- setup_conditions: S. cerevisiae sgs1 mgt1 strain, at 50.0 µM, active compounds read high
The panel holds about 79,000 compounds, 15% with a hit somewhere; the sample as a whole holds those more often.

{"compound": "CCOC(=O)C1C(=O)C(C(=O)OCC)C2c3ccccc3-c3ccccc3C1N2C (stereo unspecified)", "units": "%", "growth inhibition": 35.2}
{"compound": "CC(=O)OC1CCC2C3CCC4CC5(CCC4(C)C3CCC12C)CO5 (stereo unspecified)", "units": "%", "growth inhibition": -26.2}
{"compound": "Nc1ccc(C(=O)O)c(C(=O)O)c1.[Cl][Sn]([Cl])([Cl])[Cl]", "units": "%", "growth inhibition": 53.7}
{"compound": "CCCCC(CC)COP(OCC(CC)CCCC)OCC(CC)CCCC.[Br][Hg][Br] (stereo unspecified)", "units": "%", "growth inhibition": -10.8}
{"compound": "[Hg][c]1ccccc1", "units": "%", "growth inhibition": 99.5}
{"compound": "C[N+](C)(C)NP(=O)(N[N+](C)(C)C)c1ccccc1", "units": "%", "growth inhibition": -19.3}

###

- procedure_text: NCI Yeast Anticancer Drug Screen. Data for the mlh1 rad18 strain (AID 175)
- setup_conditions: S. cerevisiae mlh1 rad18 strain growth inhibition; at 50.0 µM (retest, dose inferred, filed as 5.0)
Compounds without any hit were thinned out: in the full panel of roughly 79,000, 15% have a hit. Activity calls are given as the source filed them. No stated cut-off is given here; in the data, active means growth inhibition above about 70%; inactive means the rest.
Possible outcomes: active, inactive

{"smiles_representation": "COc1ccc([Se][Se]c2ccc(OC)cc2OC)c(OC)c1", "class_name": "inactive"}
{"smiles_representation": "CC(=O)O[C@H]1C(=O)O[C@@H]2C[C@H]3C(C)=CC(=O)[C@@H](O)[C@]3(C)[C@H]3[C@@]4(O)OC[C@]32[C@@H]1[C@@H](C)[C@H]4O", "class_name": "active"}
{"smiles_representation": "[CH3][Sn]([CH3])([S]CCS(=O)(=O)O)[S]CCS(=O)(=O)O", "class_name": "inactive"}
{"smiles_representation": "O=[N+]([O-])c1ccc(NP(=S)(Nc2ccc([N+](=O)[O-])cc2)c2ccccc2)cc1", "class_name": "active"}
{"smiles_representation": "NS(=O)(=O)CCl.[Hg]", "class_name": "active"}

###

- procedure_text: NCI Yeast Anticancer Drug Screen. Data for the mec2-1 strain (AID 157)
- setup_conditions: S. cerevisiae mec2-1 strain, at 50.0 µM
This is part of a sample that, as a whole, favours compounds with a hit. Of some 79,000 tested, about 15% had one in any assay. Activity calls are given as the source filed them. Cut-off read from the data, not from the text of the source: active = growth inhibition above about 70%; inactive = the rest.
Possible outcomes: active, inactive

{"molecule": "CN1CN(c2ccccc2)C2(CCN(CCCSc3ccccc3NC(=O)/C=C/c3ccccc3)CC2)C1=O", "class_name": "inactive"}
{"molecule": "CCc1cccc(C(C)C)c1NC(=O)C(=O)C1C(=O)NC(=O)NC1=O", "class_name": "inactive"}
{"molecule": "O=C([O-])c1ccccc1Nc1ccccn1.O=C([O-])c1ccccc1Nc1ccccn1.[Ni+2]", "class_name": "inactive"}
{"molecule": "NCCCN1CCN(CCCN2CC2)CC1", "class_name": "inactive"}
{"molecule": "O=c1[nH]c(O)c(N=Nc2ccc([N+](=O)[O-])cc2[N+](=O)[O-])c(=O)[nH]1", "class_name": "inactive"}
{"molecule": "OCC(O)C(O)C(O)C1C[O][Sb][O]1 (stereo unspecified)", "class_name": "inactive"}
{"molecule": "CC(=O)c1cc(CN(CCCl)CCCl)c(O)c(CN(CCCl)CCCl)c1O", "class_name": "active"}
{"molecule": "CC(=O)[O][Hg][c]1c(C)c(C)cc(C)c1C", "class_name": "active"}
{"molecule": "Nc1ccccc1C(=O)c1ccccc1", "class_name": "inactive"}
{"molecule": "C[CH2][Sn]1([CH2]C)[O]S(=O)(=O)[O]1", "class_name": "active"}
{"molecule": "COc1cc2c(cc1OC)C1CC(OC(=O)c3ccccc3)(c3nccc4cc(OC)c(OC)cc34)CCN1CC2 (stereo unspecified)", "class_name": "inactive"}

###

// reported growth inhibition for each item listed
- procedure_text: NCI Yeast Anticancer Drug Screen. Data for the sgs1 mgt1 strain (AID 161);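 further: 0% = growth of cultures given vehicle only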
- setup_conditions: S. cerevisiae sgs1 mgt1 strain, at 5.0 µM (retest, dose inferred, filed as 0.5), active compounds read high
Compounds without any hit were thinned out: in the full panel of roughly 79,000, 15% have a hit. Active and inactive are the calls of the source. Rule as the data show it: active = growth inhibition above about 70%; inactive = the rest.

{"compound": "C1=C[N-]c2c3c(ccc2=C1)=CC=C[N-]3.C1=C[N-]c2c3c(ccc2=C1)=CC=C[N-]3.F[P-](F)(F)(F)(F)F.[Cu+2]", "growth inhibition": "47% (inactive)"}
{"compound": "c1cs[c]([Hg][c]2cccs2)c1", "growth inhibition": "100% (active)"}
{"compound": "O=C([CH-]C(=O)c1ccccc1)c1ccccc1.O=C([CH-]C(=O)c1ccccc1)c1ccccc1.O=C([CH-]C(=O)c1ccccc1)c1ccccc1.[OH3+].[Y+3]", "growth inhibition": "53% (inactive)"}
{"compound": "CCOC(=O)[C]1([Pb]([CH3])([CH3])[CH3])N=NC(C(=O)OC)=C1C(=O)OC (centres undefined)", "growth inhibition": "2% (inactive)"}
{"compound": "C#CC1(OC(C)=O)CCC2C3CC=C4C=C(OC(C)=O)CCC4(C)C3CCC21C (centres undefined)", "growth inhibition": "2% (inactive)"}
{"compound": "N#CC(C#N)=Cc1ccc(Cl)o1", "growth inhibition": "2% (inactive)"}
{"compound": "Nc1nc(N)c(-c2ccc(Cl)c(Cl)c2)c(CCc2ccc(CNC(=O)c3cccc(S(=O)(=O)F)c3)cc2)n1", "growth inhibition": "7% (inactive)"}
{"compound": "CCCCCCCCCCCCCC(=O)[O][Hg][c]1ccccc1", "growth inhibition": "100% (active)"}
{"compound": "CCCC[As](CCCC)SC1CCC2(C)C(=CCC3C4CCC(=O)C4(C)CCC32)C1 (centres undefined)", "growth inhibition": "21% (inactive)"}
